- tested_target: HIPK2(h) (Homo sapiens)
- Construct: purchased Millipore
- Sequence (Q9H2X6 whole entry): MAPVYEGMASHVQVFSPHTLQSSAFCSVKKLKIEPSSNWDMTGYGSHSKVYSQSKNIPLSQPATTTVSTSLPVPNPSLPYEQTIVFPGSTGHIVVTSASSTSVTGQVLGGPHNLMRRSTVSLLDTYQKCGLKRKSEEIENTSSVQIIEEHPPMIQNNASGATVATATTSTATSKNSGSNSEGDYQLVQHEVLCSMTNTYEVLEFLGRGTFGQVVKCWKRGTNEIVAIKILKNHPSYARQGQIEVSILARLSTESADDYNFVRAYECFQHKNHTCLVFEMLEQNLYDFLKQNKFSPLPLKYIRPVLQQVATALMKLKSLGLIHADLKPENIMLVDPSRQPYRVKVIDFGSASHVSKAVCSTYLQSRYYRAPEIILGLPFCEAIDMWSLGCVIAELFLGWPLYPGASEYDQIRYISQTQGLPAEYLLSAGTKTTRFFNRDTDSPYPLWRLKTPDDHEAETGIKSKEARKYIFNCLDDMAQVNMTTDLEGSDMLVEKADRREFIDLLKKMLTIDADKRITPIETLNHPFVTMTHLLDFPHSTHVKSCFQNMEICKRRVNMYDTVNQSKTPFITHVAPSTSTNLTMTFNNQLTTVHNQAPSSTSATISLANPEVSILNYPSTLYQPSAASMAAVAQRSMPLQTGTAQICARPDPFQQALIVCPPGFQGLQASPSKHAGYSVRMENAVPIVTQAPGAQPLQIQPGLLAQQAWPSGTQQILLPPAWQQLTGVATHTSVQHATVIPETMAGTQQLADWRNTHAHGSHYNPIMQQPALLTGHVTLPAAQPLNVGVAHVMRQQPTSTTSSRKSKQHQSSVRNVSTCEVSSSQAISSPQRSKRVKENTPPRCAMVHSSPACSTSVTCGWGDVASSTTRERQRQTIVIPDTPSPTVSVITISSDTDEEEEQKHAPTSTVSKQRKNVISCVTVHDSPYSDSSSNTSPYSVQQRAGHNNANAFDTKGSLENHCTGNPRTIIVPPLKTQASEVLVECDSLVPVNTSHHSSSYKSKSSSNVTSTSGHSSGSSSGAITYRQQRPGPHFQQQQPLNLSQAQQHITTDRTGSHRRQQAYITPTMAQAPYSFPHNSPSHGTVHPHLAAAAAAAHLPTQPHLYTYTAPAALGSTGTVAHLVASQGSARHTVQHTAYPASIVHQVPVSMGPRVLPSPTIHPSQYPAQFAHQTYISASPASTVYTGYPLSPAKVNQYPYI
- test_method_notes: Kinase Profiling Assay
- Assay type: biochemical
- assay_context: peptide 100 μM
No end group written: not given here.
reported_property: % activity (%)
Expressed in %, but write only the number.

# % activity of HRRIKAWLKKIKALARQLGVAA (Mammal) [MMI-0500] = 38

Form field % activity, entry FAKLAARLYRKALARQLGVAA [MMI-0300] : 73

Documented % activity of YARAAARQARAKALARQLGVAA [MMI-0100] : 98

Per the record, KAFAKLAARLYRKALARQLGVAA [MMI-0400] has % activity of 90

* * *

- tested_target: Flt3(h) (Homo sapiens)
- test_method_notes: Kinase Profiling Assay
- Type: biochemical
- assay_context: peptide 100 μM
I'd appreciate it if you could supply % activity values for the items below.
Answer with a number only, understood to be in %.

// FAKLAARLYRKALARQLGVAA [MMI-0300] : % activity value = 84

Entry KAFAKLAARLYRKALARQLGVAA [MMI-0400] ; % activity = 18

Entry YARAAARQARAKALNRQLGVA (Mammal) [MMI-0200] ; % activity = 99

For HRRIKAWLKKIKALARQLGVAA (Mammal) [MMI-0500] the sequence record lists % activity as 17

* * *

- tested_target: TBK1(h) (Homo sapiens, UniProt Q9UHD2)
- Construct: purchased Millipore
- Sequence (Q9UHD2 1-729): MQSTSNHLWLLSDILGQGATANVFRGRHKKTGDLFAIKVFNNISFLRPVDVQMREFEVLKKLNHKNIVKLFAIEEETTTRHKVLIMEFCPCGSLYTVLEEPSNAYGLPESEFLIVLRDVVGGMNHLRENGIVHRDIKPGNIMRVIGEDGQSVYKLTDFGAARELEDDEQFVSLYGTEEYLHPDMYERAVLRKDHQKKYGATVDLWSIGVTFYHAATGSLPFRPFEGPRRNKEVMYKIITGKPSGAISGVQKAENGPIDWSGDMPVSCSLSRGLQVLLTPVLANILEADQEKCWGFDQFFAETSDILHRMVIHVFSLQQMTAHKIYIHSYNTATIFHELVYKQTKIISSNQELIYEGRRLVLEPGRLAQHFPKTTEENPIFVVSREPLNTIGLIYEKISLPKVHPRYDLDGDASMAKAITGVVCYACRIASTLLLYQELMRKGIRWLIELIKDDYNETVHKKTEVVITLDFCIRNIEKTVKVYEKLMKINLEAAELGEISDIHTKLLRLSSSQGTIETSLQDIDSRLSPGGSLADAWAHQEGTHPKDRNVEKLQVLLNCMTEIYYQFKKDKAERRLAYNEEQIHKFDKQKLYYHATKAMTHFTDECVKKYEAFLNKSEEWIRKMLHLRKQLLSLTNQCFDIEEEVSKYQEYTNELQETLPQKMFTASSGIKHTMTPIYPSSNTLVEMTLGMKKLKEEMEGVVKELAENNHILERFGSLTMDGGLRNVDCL
- test_method_notes: Kinase Profiling Assay
- Type: biochemical
- assay_context: peptide 100 μM
reported_property: % activity (%)
Lab book: enter the figure in %, no units written.

Noted for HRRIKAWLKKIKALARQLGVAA (Mammal) [MMI-0500] : its % activity reads 16

Query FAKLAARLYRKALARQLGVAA [MMI-0300] yields % activity of 37

Measured % activity of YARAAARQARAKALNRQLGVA (Mammal) [MMI-0200] : 98

Per the record, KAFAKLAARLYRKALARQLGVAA [MMI-0400] has % activity of 39
